assay: Absorption and emission spectra of dyes in different solvents; type: physicochemical; design: scale not given here; conditions: solvent Methanol
Reported ε2 (molar extinction coefficient) values for the following compounds.
ATTRIBUTE_MEASURED: ε2 (molar extinction coefficient) (cm^−1M)

COMPOUND	MEASURE_UNIT	RECORDED_MEASUREMENT
CCN1/C(=C/C=C/C(=C/C2=[N+](CC)c3ccccc3C2(C)C)NCCO)C(C)(C)c2ccccc21 [Dye IIb]	cm^−1M	2.4
CCN(CC)C(=C\C1=[N+](CC)c2ccccc2C1(C)C)/C=C/C=C1/N(CC)c2ccccc2C1(C)C [Dye IId]	cm^−1M	2.8
CCN1/C(=C/C=C/C(N)=C/C2=[N+](CC)c3ccccc3C2(C)C)C(C)(C)c2ccccc21 [Dye IIa]	cm^−1M	2.0
CCN1/C(=C/C=C/C(=C/C2=[N+](CC)c3ccccc3C2(C)C)N(CCO)CCO)C(C)(C)c2ccccc21 [Dye IIc]	cm^−1M	2.2
CCN1/C(=C/C=C/C(=C/C2=[N+](CC)c3ccccc3C2(C)C)NCc2ccccc2)C(C)(C)c2ccccc21 [Dye IIe]	cm^−1M	2.2
CCN1/C(=C/C=C/C(=C/C2=[N+](CC)c3ccccc3C2(C)C)N(Cc2ccccc2)Cc2ccccc2)C(C)(C)c2ccccc21 [Dye IIf]	cm^−1M	2.5
CCN1/C(=C/C=C/C(=C/C2=[N+](CC)c3ccccc3C2(C)C)Nc2ccccc2)C(C)(C)c2ccccc21 [Dye IIg]	cm^−1M	2.2
